# target_of_assay: NR1/NR2A (Homo sapiens (Human), UniProt Q05586+Q12879)
# Sequence (Q12879 23-1464, other chains not shown): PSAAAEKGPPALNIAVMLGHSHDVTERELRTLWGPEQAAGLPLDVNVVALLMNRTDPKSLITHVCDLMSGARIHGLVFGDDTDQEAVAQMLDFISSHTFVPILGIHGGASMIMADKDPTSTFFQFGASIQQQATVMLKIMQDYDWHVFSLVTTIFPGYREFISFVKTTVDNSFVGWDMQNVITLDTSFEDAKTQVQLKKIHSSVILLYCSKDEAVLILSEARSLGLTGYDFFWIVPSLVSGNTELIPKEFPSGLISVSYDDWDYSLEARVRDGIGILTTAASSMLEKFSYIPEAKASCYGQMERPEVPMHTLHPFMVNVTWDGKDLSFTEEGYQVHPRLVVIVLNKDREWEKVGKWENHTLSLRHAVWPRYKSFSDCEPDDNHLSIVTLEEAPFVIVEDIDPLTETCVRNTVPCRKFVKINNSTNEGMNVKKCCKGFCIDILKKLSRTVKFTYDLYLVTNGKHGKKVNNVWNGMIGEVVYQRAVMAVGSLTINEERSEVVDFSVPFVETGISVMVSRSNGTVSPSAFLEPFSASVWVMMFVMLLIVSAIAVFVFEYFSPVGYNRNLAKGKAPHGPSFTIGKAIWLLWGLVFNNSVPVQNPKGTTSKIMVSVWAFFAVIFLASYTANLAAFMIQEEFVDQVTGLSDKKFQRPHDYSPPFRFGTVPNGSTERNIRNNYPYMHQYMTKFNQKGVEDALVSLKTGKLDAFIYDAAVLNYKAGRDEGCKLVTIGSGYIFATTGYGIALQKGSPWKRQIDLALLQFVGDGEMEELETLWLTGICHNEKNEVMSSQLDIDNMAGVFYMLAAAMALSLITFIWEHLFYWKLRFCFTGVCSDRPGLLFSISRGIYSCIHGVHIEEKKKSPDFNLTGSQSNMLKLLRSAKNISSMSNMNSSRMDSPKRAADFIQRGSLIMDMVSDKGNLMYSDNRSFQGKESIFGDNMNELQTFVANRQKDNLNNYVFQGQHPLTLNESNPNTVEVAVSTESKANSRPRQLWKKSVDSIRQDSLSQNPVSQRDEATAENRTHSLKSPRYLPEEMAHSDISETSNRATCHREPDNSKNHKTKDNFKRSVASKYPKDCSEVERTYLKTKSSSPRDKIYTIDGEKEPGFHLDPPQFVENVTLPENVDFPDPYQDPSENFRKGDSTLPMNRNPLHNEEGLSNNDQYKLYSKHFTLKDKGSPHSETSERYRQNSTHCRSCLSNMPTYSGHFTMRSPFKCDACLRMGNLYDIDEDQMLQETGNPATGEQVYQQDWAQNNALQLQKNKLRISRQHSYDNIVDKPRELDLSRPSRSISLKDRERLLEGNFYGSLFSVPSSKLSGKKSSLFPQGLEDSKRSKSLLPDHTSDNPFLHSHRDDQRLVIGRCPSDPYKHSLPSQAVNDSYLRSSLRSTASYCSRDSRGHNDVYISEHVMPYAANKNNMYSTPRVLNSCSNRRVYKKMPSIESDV
# assay_notes: FDSS Ca2+ influx inhibition assay in HEK293 cells expressing NR1/NR2A
# Type: cell-based
# conditions_used: 3 μM glutamate, 3 μM glycine, 1 mM Ca2+, read-out: Binned Activity
pIC50: −log10 of the molar value.
measurement_type: pIC50

# annotated cases, reported pIC50 shown
INSERT INTO results (chemical_structure, measurement_type, result) VALUES
  ('Cc1ncc(CNC(=O)c2cnc(CNS(=O)(=O)c3ccccc3F)c(C)n2)s1', 'pIC50', '< 5.00'),
  ('Cc1nc(CNC(=O)c2ccc(CNS(=O)(=O)c3ccc(F)c(Cl)c3)nc2)cs1', 'pIC50', '< 5.00'),
  ('Cc1ncc(CNC(=O)c2cnc(CNS(=O)(=O)c3ccc(F)c(Cl)c3)c(C)n2)s1', 'pIC50', '> 7.00'),
  ('Cc1cnc(CNC(=O)c2cnc(CNS(=O)(=O)c3ccc(F)c(Cl)c3)cn2)cn1', 'pIC50', '5.00 to 6.00');

Here's the next entry for you.
Exercise: Could you please provide reported pIC50 for `Cc1ncc(CNC(=O)c2ccc(CNS(=O)(=O)c3ccoc3)cn2)s1` ? Thanks!
Key: < 5.00
